The measured values listed here are drawn from paper PMC9964746.

Target: CCK1R (Homo sapiens)
Sequence (P32238 whole entry): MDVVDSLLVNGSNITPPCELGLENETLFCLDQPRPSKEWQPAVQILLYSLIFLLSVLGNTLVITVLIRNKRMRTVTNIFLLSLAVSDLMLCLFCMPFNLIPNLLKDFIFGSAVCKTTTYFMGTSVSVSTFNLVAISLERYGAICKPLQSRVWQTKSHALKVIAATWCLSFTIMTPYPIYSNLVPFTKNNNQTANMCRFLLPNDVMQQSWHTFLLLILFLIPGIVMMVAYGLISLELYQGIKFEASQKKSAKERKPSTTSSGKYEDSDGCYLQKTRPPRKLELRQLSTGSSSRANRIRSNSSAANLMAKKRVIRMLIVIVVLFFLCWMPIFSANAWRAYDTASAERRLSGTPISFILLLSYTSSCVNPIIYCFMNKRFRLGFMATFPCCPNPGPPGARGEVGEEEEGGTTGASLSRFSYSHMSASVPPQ
Assay: IP-One accumulation TR-FRET assay, agonist format, HEK-293 CCK1R cells
Type: cell-based
Parameters: expressed in transfected cells; host or cells: HEK-293
Conditions: HEK293, relative to CCK control, average ± SD, read-out: CCK1R Ago (IP-One) Emax
Experimental: For structure–activity relationship studies, we performed myo-inositol-1-phosphate (IP-One) accumulation assays with TR-FRET technology applied to the HEK-293 cell line overexpressing CCK1Rs, as we had described in our high throughput screening effort. […] Detection reagents from the IP-One Gq detection kit from Cisbio (Cisbio US Inc., Bedford, MA, USA, #62IPAPEJ) were added, and after 1 h at RT, IP-One content was measured with a PHERAstar FSX microplate reader (BMG Labtech, Ortenberg, Germany). […]
Provide the recorded Emax for the entries that follow.
Field: numeric (%). Do not append units.

[in] Could you share which Emax value was measured for CN(C)CCCNc1nnnc2c1sc1nc(N3CCCCC3)c3c(c12)CCCC3 ?
[out] 41

[in] Again, but for CCN(CC)CCNc1ncnc2c1sc1nc(N3CCCCC3)c3c(c12)CCCC3
[out] 0

[in] Again, but for NNc1ncnc2c1sc1nc(N3CCOCC3)c3c(c12)CCCC3
[out] 0

[in] Again, but for CN1CCN(c2ncnc3c2sc2nc(N4CCCCC4)c4c(c23)CCCC4)CC1
[out] 0

[in] Again, but for CN(C)CCCNc1ncnc2c1sc1nc(N3CCOCC3)c3c(c12)CCC3
[out] 0

[in] Again, but for CCCc1nc2oc3c(NCc4ccncc4)ncnc3c2c2c1CCCC2
[out] 0

----------
Provide the recorded Emax for the entries that follow.
Molecular target: vasopressin-2 receptor (AVP2R) (Homo sapiens)
Construct: expressed in transfected cells; host or cells: CHO-K1 (PAM format); HEK-293 (agonist format)
Sequence (P30518 whole entry): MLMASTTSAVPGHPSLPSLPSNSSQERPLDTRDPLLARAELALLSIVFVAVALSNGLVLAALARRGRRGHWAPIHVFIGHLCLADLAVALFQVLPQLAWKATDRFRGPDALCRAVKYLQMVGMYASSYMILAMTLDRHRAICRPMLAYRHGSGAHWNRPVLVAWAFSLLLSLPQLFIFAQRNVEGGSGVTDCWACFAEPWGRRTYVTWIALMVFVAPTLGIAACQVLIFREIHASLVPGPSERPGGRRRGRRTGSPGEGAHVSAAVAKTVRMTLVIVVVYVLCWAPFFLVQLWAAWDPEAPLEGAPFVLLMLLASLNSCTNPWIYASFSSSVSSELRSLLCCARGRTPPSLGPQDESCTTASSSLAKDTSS
Assay: AVP2R cAMP HTRF accumulation assay
Format: cell-based
Conditions: CHO-K1 AVP2R cells, PAM format with vasopressin; original hits: agonist and PAM data combined; average ± SD
Field: numeric (%). Do not append units.

[in] Report Emax for CN1CCN(c2ncnc3c2sc2nc(N4CCCCC4)c4c(c23)CCCC4)CC1 [CMP-31] tested on vasopressin-2 receptor (AVP2R) (Homo sapiens).
[out] 24

[in] Again, but for CC(C)Cc1nc2oc3c(NCCCN(C)C)ncnc3c2c2c1CCC2 [CMP-13]
[out] 28

[in] Again, but for CCCc1nc2oc3c(NCCCO)ncnc3c2c2c1CCCC2 [CMP-58]
[out] 0

[in] Again, but for c1ccc(CCNc2ncnc3c2sc2nc(N4CCOCC4)c4c(c23)CCCC4)cc1 [CMP-42]
[out] 0

[in] Again, but for CC(C)Cc1nc2sc3c(NCCN4CCOCC4)ncnc3c2c2c1CCCC2 [CMP-34]
[out] 42

[in] Again, but for CC(C)Cc1nc2oc3c(NCCN(C)C)ncnc3c2c2c1CCCC2 [CMP-25]
[out] 74

----------
Molecular target: CCK1R (Homo sapiens)
Assay: IP-One accumulation TR-FRET assay, PAM format, HEK-293 CCK1R cells
Format: cell-based
Parameters: expressed in transfected cells; host or cells: HEK-293
Settings: HEK293; HEK-293 CCK1R cells, PAM format, relative to CCK control; average ± SD
Class met: Emax at least 40%. Class not met: Emax below 40%.

[in] Form field: Emax at least 40%? Entry: CN(C)CCNc1ncnc2c1sc1nc(-c3ccccc3)c3c(c12)CCCC3
[out] met

[in] Again, but for CN(C)CCNc1ncnc2c1sc1nc(N3CCOCC3)c3c(c12)CCCC3
[out] met

[in] Again, but for O=C(CSc1ncnc2c1sc1nc(N3CCOCC3)c3c(c12)CCCC3)NCc1ccco1
[out] not met

[in] Again, but for CC(C)Cc1nc2oc3c(N4CCNCC4)ncnc3c2c2c1CCCC2
[out] met

[in] Again, but for NNc1ncnc2c1sc1nc(N3CCOCC3)c3c(c12)CCCC3
[out] not met

[in] Again, but for CCCCc1nc2sc3c(NCCCO)ncnc3c2c2c1CCC2
[out] met

[in] Again, but for CC(C)Cc1nc2oc3c(NCCN(C)C)ncnc3c2c2c1CCCC2
[out] not met

[in] Again, but for CC(C)Cc1nc2oc3c(NCCN(C)C)ncnc3c2c2c1CCC2
[out] met
